# ASSAYED_TARGET: T1, AD8P FRET peptide X-RTAAVFRP-Z (not fully specified)
# T1 chain: RTAAVFRP

{"columns": ["PROTEIN", "Relative proteolytic activity"],
 "data": [
  ["soluble recombinant human MDC-L, active form (protein) VQEHEKYIEYYLVLDNGEFKRYNENQDEIRKRVFEMANYVNMLYKKLNTHVALVGMEIWTDKDKIKITPNASFTLENFSKWRGSVLSRRKRHDIAQLITATELAGTTVGLAFMSTMCSPYSVGVVQDHSDNLLRVAGTMAHEMGHNFGMFHDDYSCKCPSTICVMDKALSFYIPTDFSSCSRLSYDKFFEDKLSNCLFNAP", "*"],
  ["soluble recombinant human ADAM15, active form (protein) DVVTETKTVELVIVADHSEAQKYRDFQHLLNRTLEVALLLDTFFRPLNVRVALVGLEAWTQRDLVEISPNPAVTLENFLHWRRAHLLPRLPHDSAQLVTGTSFSGPTVGMAIQNSICSPDFSGGVNMDHSTSILGVASSIAHELGHSLGLDHDLPGNSCPCPGPAPAKTCIMEASTDFLPGLNFSNCSRRALEKALLDGMGSCLFERL", "*"],
  ["soluble recombinant human ADAM8, active (processed) form (protein) RYVELYVVVDNAEFQMLGSEAAVRHRVLEVVNHVDKLYQKLNFRVVLVGLEIWNSQDRFHVSPDPSVTLENLLTWQARQRTRRHLHDNVQLITGVDFTGTTVGFARVSAMCSHSSGAVNQDHSKNPVGVACTMAHEMGHNLGMDHDENVQGCRCQERFEAGRCIMAGSIGSSFPRMFSDCSQAYLESFLERPQSVCLANAP", "*"],
  ["recombinant ADAM17 (protein) RADPDPMKNTCKLLVVADHRFYRYMGRGEESTTTNYLIELIDRVDDIYRNTSWDNAGFKGYGIQIEQIRILKSPQEVKPGEKHYNMAKSYPNEEKDAWDVKMLLEQFSFDIAEEASKVCLAHLFTYQDFDMGTLGLAYVGSPRANSHGGVCPKAYYSPVGKKNIYLNSGLTSTKNYGKTILTKEADLVTTHELGHNFGAEHDPDGLAECAPNEDQGGKYVMYPIAVSGDHENNKMFSNCSKQSIYKTIESKAQECFQERSNKV", "*****"]
]}
